Biological target: T1, HER3 extracellular domain 4, biotinylated (N-terminal AviTag and His6 tag) (human, biotin (in vitro biotinylation, AviTag))
T1 construct: HER3 (ErbB3) extracellular domain 4, human, residues 500-643 of UniProt entry P21860; also called HER3d4; HER3 domain 4; source: Sf9 insect cells (baculovirus), secreted, purified (IMAC, Superdex 75), biotinylated in vitro; not shown: AviTag, N-terminal, kept
T1 chain: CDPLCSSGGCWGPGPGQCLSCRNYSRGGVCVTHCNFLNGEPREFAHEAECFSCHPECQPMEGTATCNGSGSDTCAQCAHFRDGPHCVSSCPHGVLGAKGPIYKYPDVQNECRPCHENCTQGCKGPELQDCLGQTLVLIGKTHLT
Experiment: SPR; ProteOn XPR36, NeutrAvidin NLC chip; biotinylated HER3d4 immobilised; monomeric DARPins injected at 2.5, 7.5, 22, 67 and 200 nM (duplicates), 60 µl/min, 5 min association, 5 min dissociation; PBS with 0.005% Tween-20; kinetic titration model
Conditions: both partners purified
Exercise: state measured kon for each of the binders provided.
Report only the number, with the unit M⁻¹ s⁻¹ understood.

Query block: Query (binder): DARPin D5 (His6- and FLAG-tagged form used for characterisation) (designed binder, N2C DARPin selected by ribosome display; source: E. coli XL1 Blue, purified (HisPur Cobalt Spin Plates)) GSDLGKKLLEAARAGQDDEVRILMANGADVNAFDHNGSTPLHLAAAIGHLEIVEVLLKYGADVNAEDNWGNTPLHQAAWVGHLEIVEVLLKNGADVNAQDKFGKTAFDISIDNGNEDLAEILQKLN ; field requested: kon
Result block: 1.25e+06

Query block: Lookup DARPin D1 (designed binder, N2C DARPin selected by ribosome display; source: E. coli XL1 Blue, purified (HisPur Cobalt Spin Plates)) GSDLGKKLLEAARAGQDDEVRILMTNGADVNAFDHNGSTPLHLAAAIGHLEIVEVLLKYGADVNAEDNWGNTPLHQAAWVGHREIVEVLLKYGVDVNAQDKFGKTAFDISIDNGNEDLAEILQKLN
Result block: 1.23e+06

Query block: Lookup DARPin D4 (designed binder, N2C DARPin selected by ribosome display; source: E. coli XL1 Blue, purified (HisPur Cobalt Spin Plates)) GSDLGKKLLEAARAGQDDEVRILMANGADVNAFDHNGSTPLHLAAAIGHLEIVEVLLKYGADVNAEDNWGNTPLHQAAWVGHREIVEVLLKYGADVNAQDKFGKTAFDISIDNGNEDLAEILQKLN
Result block: 1.51e+06

Query block: Lookup DARPin D8 (designed binder, N3C DARPin selected by ribosome display; source: E. coli XL1 Blue, purified (HisPur Cobalt Spin Plates)) GSDLGKKLLEAARAGQDDEVRILMANGADVNAQDVSGQTPLHLAAIWGHLEIVEVLLKTGADVNAWDHWGNTPLHLAAWQGHLEIVEVLLKAGADVNAKDSEGFTPLHLAAWWGHLEIVEVLLKHGADVNAQDKFGKTPFDLAIDNGNEDIAEVLQKAAKLN
Result block: 158000
